# Test system: Salmonella Typhimurium TA100 strain
# Stated Conditions: 10 µM; TA100; mutagenic if MI ≥ 2
Collected MI (mutagenic index) values appear next to each entry.
Please give only the number in your answer, with no unit.

Consider the reported MI (mutagenic index) for these compounds:
                                   compound  value_observed
0  C[Se]C(=O)c1cccc(C(=O)[Se]C)n1 [EDA-119]            0.96
1   C[Se]C(=O)c1ccc(C(=O)[Se]C)s1 [EDA-122]            1.46
2  CC(=O)C[Se]C(=O)c1ccc(Cl)cc1 [EDA-71, Se-(2-oxopropyl) 4-chlorobenzoselenoate]            0.79
3  C[Se]C(=O)c1cccc(C(=O)[Se]C)c1 [EDA-120]            1.46
4  COc1cc(OC)cc(C(=O)[Se]CC(=O)C(C)(C)C)c1 [EDA-74]            0.69

Query O=C1[Se]C(=O)c2ccccc21 [EDA-A6, benzo[c]selenophene-1,3-dione] yields MI (mutagenic index) of 0.38

Input C[Se](=O)O [MetSeAc, methylseleninic acid, reference compound] . Output MI (mutagenic index): 0.96

Kindly note the recorded MI (mutagenic index) for O=C(C[Se]C(=O)c1ccccc1)Oc1ccccc1 [EDA-93, phenyl 2-(benzoylselanyl)acetate] , which is 1.08

Lab book: MI (mutagenic index) of COC(=O)C[Se]C(=O)c1ccccc1Cl [EDA-46] noted as 0.94
